# System: PLK1
# Experimental Setup: concentration: 1 μM, replicates: in singlicate; n = 1;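 also: KINOMEscan kinase panel screen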
Readout Kind: %Inh (%)
Please give a number only; it is taken to be in %.

Study these solved cases before continuing.
COc1cc2c(cc1OCCN1CCNCC1)ncc1c3ccc(C#N)cc3[nH]c21
28
Cn1cc(-c2ccc3c(c2)CCN3C(=O)Cc2cccc(Cl)c2)c2c(N)ncnc21 [GSK2606590]
7
COc1cccc(C(=O)Nc2cccc(Oc3ccc4nc(NC(=O)C5CC5)cn4n3)c2)c1
0
CCCCc1nn2ncccc2c1-c1ccnc(Nc2ccc(N3CCN(C)CC3)cc2)n1 [GW684941]
0
Cc1ccc(F)c(C(=O)Nc2cccc(-c3nn4ccccc4c3-c3ccnc(Nc4cccc(F)c4)n3)c2)c1F [GSK361061]
19

Consider the additional compound presented here.
Qu. Name the value of %Inh reported for O=C(Nc1cccc(-c2nn3ncccc3c2-c2ccnc(Nc3ccccc3)n2)c1)c1c(F)cccc1F [GSK198271] when tested on PLK1.
Ans. 3

###

# System: NEK9
# Experimental Setup: concentration: 1 μM, replicates: in singlicate; n = 1
Readout Kind: %Inh (%)
Please give a number only; it is taken to be in %.

Study these solved cases before continuing.
Cc1ccc(C(=O)Nc2ccc(Nc3ccnc4cc(-c5nccs5)ccc34)cc2O)cc1.Cl
0
CC(=O)Nc1nc2cnc(Nc3cc(NC(=O)c4cccc(C5(C#N)CC5)c4Cl)ccc3C)nc2s1
14
COc1cccc(-c2ccc3c(NC(=O)C4CC4)n[nH]c3n2)c1
0
C[C@@H](Oc1cc(-n2cnc3cc(-c4ccnc(NCCS(C)(=O)=O)c4)ccc32)sc1C(N)=O)c1ccccc1Cl
74

Qu. Look up and state reported %Inh for O=C(Nc1cccc(-c2nn3ncccc3c2-c2ccnc(Nc3ccccc3)n2)c1)c1c(F)cccc1F
Ans. 8

Qu. Look up and state reported %Inh for CCn1c(-c2nonc2N)nc2c(C#CC(C)(C)O)ncc(OCCCCN)c21.O=C(O)C(F)(F)F.O=C(O)C(F)(F)F
Ans. 0

Qu. Look up and state reported %Inh for Cc1ccc(S(=O)(=O)Nc2ccc(Nc3nccc(Nc4cccc5[nH]ncc45)n3)cc2)cc1
Ans. 11

Qu. Look up and state reported %Inh for COC(=O)Nc1nc2ccc(Oc3ccc(NC(=O)Nc4cc(C(F)(F)F)ccc4F)cc3)cc2n1C.Cl
Ans. 0

Qu. Look up and state reported %Inh for Nc1ncc(-c2cccnc2)c2scc(-c3ccc4c(c3)CCN4C(=O)Cc3ccccc3)c12
Ans. 28

###

# Tested on: PRKR
# Construct: gene EIF2AK2
# Experimental Setup: concentration: 1 μM, replicates: in singlicate; n = 1
Readout Kind: %Inh (%)
Please give a number only; it is taken to be in %.

Study these solved cases before continuing.
Cc1ccc(C(=O)N2CC[C@@H](O)C2)cc1-n1c(C)cc(OCc2ccc(F)cc2F)c(Br)c1=O
0
Cc1cccc(Nc2nc(N[C@H]3CCNC3)ncc2C(N)=O)c1.Cl [GSK2197149]
22
Oc1cc(Nc2ccnc3cc(I)ccc23)ccc1F [GW552771]
0

Qu. Look up and state reported %Inh for Nc1n[nH]c2cnc(-c3ccccc3)cc12 [SB-642124]
Ans. 0

Qu. Look up and state reported %Inh for O=c1[nH]cc(-c2ccc(N3CCOCC3)cc2)c2sc(-c3cn[nH]c3)cc12 [GSK2276055]
Ans. 34

###

# Tested on: LKB1
# Construct: gene STK11
# Experimental Setup: concentration: 1 μM, replicates: in singlicate; n = 1
Readout Kind: %Inh (%)
Please give a number only; it is taken to be in %.

O=C(Nc1cccc(-c2nn3ccccc3c2-c2ccnc(Nc3cccc(F)c3)n2)c1)c1c(F)ccc(F)c1Cl
0

Qu. Look up and state reported %Inh for O=C(O)C(F)(F)F.O=C(O)C(F)(F)F.O=c1[nH]ccc2nc(N[C@@H]3CCCNC3)nc(Nc3ccc(S(=O)(=O)N4CCOCC4)cc3)c12
Ans. 92.1

Qu. Look up and state reported %Inh for COc1cccc(C(=O)Nc2cccc(Oc3ccc4nc(NC(=O)C5CC5)cn4n3)c2)c1
Ans. 0

Qu. Look up and state reported %Inh for Cc1occc1-c1ncc(OC[C@@H](N)Cc2c[nH]c3ccccc23)cc1-c1ccc2[nH]nc(C)c2c1.O=C(O)C(F)(F)F
Ans. 0

Qu. Look up and state reported %Inh for O=C(Nc1n[nH]c2nc(-c3ccc(O)cc3)ccc12)C1CC1
Ans. 9

###

We begin with a simple list: items and their reported %Inh.
# Test system: CDK2
# Experimental Setup: concentration: 1 μM, replicates: in singlicate; n = 1
Please give a number only; it is taken to be in %.

C[C@@H](Oc1cc(-n2cnc3cc(-c4ccnc(NCCS(C)(=O)=O)c4)ccc32)sc1C(N)=O)c1ccccc1Cl
13

Qu. Look up and state reported %Inh for CC(C)c1nc(-c2cccc(NS(=O)(=O)c3c(F)cccc3F)c2F)c(-c2ccnc(Nc3ccc(N4CCOCC4)nc3)n2)s1
Ans. 99.4

Qu. Look up and state reported %Inh for O=C(Nc1cccc(-c2nn3ccccc3c2-c2ccnc(Nc3cccc(F)c3)n2)c1)c1c(F)ccc(F)c1Cl
Ans. 0

Qu. Look up and state reported %Inh for c1ccc(-c2cnc3nccnn23)cc1
Ans. 0

Qu. Look up and state reported %Inh for Cn1cc(-c2ccc3c(c2)CCN3C(=O)Cc2cccc(F)c2)c2c(N)ncnc21
Ans. 0

Qu. Look up and state reported %Inh for Cc1ccc(C(=O)Nc2ccc(Nc3ccnc4cc(-c5nccs5)ccc34)cc2O)cc1.Cl
Ans. 94.4

Qu. Look up and state reported %Inh for CN(C)S(=O)(=O)c1cc(-c2ccc3nccc(-c4cccc(S(N)(=O)=O)c4)c3c2)cnc1N
Ans. 0

Qu. Look up and state reported %Inh for CSc1cccc2c(-c3ccncn3)c(-c3ccc(F)cc3)nn12
Ans. 11

Qu. Look up and state reported %Inh for COc1cc(Nc2nccc(-c3c(-c4cccc(NC(=O)c5c(F)cccc5F)c4)nn4ccccc34)n2)cc(OC)c1OC
Ans. 20

Qu. Look up and state reported %Inh for C[C@@H]1CC[C@@H](C(=O)Nc2ccccc2)CN1c1cc(-c2ccc3c(N)n[nH]c3c2)nc(N)n1
Ans. 20

###

# Tested on: TSSK1B
# Experimental Setup: concentration: 1 μM, replicates: in singlicate; n = 1
We begin with a simple list: items and their reported %Inh.
Please give a number only; it is taken to be in %.

COc1cc(Nc2ncc3c(C)nc(-c4cc5ccccc5[nH]4)n3n2)cc(OC)c1OC [GW869516]
6

Qu. Look up and state reported %Inh for Cl.Cl.NCC(NC(=O)c1cc(-c2ccccc2)c(-c2ccnc3[nH]ccc23)s1)c1ccccc1 (stereo not shown) [GSK1321561]
Ans. 0

Qu. Look up and state reported %Inh for Cn1cc(-c2ccc3c(c2)CCN3C(=O)Cc2cccc(Cl)c2)c2c(N)ncnc21 [GSK2606590]
Ans. 20

Qu. Look up and state reported %Inh for CNC(=O)c1ccccc1Nc1nc(Nc2ccc(N3CCOCC3)cc2)ncc1Cl.Cl [GSK1576028]
Ans. 15

###

# Test system: FGFR3
# Experimental Setup: concentration: 1 μM, replicates: in singlicate; n = 1
We begin with a simple list: items and their reported %Inh.

Study these solved cases before continuing.
Nc1n[nH]c2cnc(-c3ccccc3)cc12 [SB-642124]
16%
CC(=O)N1CCN(c2ccc(Nc3nccc(-c4sc(C(C)C)nc4-c4cccc(NS(=O)(=O)c5cccc(Cl)c5)c4)n3)cn2)CC1 [GSK1660437]
7%
Oc1cc(Nc2ccnc3cc(I)ccc23)ccc1F [GW552771]
13%

Consider the additional compound presented here.
Qu. Name the value of %Inh reported for c1ccc(Oc2ccc(Nc3ccnc4cc(-c5ccc(CNCCN6CCOCC6)o5)ccc34)cc2)nc1 [GW567145] when tested on FGFR3.
Ans. 10%

###

# Test system: MLCK
# Construct: gene MYLK3
# Experimental Setup: concentration: 1 μM, replicates: in singlicate; n = 1
Readout Kind: %Inh (%)
Please give a number only; it is taken to be in %.

Study these solved cases before continuing.
Nc1ncnc2c1nc(-c1ccccc1)n2-c1ccccc1
23
CN1CCN(CCCNc2nccc(-c3c(-c4ccc(F)cc4)nn4cc(C(F)(F)F)ccc34)n2)CC1
4
FC(F)(F)c1ccc(/C=C/c2cncnc2Nc2ccc3[nH]c(Cc4ccccc4)nc3c2)cc1
0
O=C(O)C(F)(F)F.O=C(O)C(F)(F)F.O=c1[nH]ccc2nc(N[C@@H]3CCCNC3)nc(Nc3ccc(S(=O)(=O)N4CCOCC4)cc3)c12
90.8
Cl.Cl.NCC(NC(=O)c1cc(-c2ccccc2)c(-c2ccnc3[nH]ccc23)s1)c1ccccc1 (centres unmarked)
40

Consider the additional molecule presented here.
Qu. Look up and state reported %Inh for CC(=O)N1CCN(c2ccc(Nc3nccc(-c4sc(C(C)C)nc4-c4cccc(NS(=O)(=O)c5cccc(Cl)c5)c4)n3)cn2)CC1
Ans. 0
